- target-desc: human CRTH2 (Homo sapiens)
- Construct: expressed in transfected cells
- Sequence (Q9Y5Y4 1-395): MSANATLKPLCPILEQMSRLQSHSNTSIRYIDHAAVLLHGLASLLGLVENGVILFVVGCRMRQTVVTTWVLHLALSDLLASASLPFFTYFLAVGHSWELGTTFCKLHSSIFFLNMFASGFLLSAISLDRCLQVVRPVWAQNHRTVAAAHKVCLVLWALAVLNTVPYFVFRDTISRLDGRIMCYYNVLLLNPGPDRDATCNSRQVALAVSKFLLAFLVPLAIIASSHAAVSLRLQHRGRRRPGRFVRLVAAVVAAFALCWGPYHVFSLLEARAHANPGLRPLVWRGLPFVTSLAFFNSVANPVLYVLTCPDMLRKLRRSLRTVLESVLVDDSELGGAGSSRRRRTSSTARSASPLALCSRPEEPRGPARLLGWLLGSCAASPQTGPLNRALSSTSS
- test-name: [35S]GTPγS binding assay (SPA) on membranes from CHO-K1 cells stably expressing human CRTH2, stimulated with 60 nM DHK-PGD2
- Type: biochemical
- condition-info: potency class symbols; Table 2; read-out: CRTH2 hGTPγS IC50
- Method: [^35S]GTPγS Binding Assay SPA [^35S]G-TPγS binding was performed on membranes from CHO-K1 cells stably expressing human CRTH2. […] Plates were read after an additional 4 h using the Trilux 1450 Microbeta (PerkinElmer) with a 30 sec/well reading time.
attribute-measured: IC50

Prompt: Jot down IC50 (human CRTH2 (Homo sapiens)) of `CN(C)S(=O)(=O)c1cccc(-c2cc(CN(C)S(=O)(=O)c3ccc(F)cc3)ccc2OCC(=O)O)c1` .
Completion: < 100 nM

With those in mind, consider the next compound.
Prompt: Jot down IC50 (human CRTH2 (Homo sapiens)) of `CC(C)Oc1cc(F)cc(-c2cc(CN(C)S(=O)(=O)c3ccc(F)cc3)ccc2OCC(=O)O)c1` .
Completion: < 100 nM

###

- target-desc: human CRTH2 (Homo sapiens)
- Construct: expressed in transfected cells
- test-name: [35S]GTPγS binding assay (SPA) on membranes from CHO-K1 cells stably expressing human CRTH2, stimulated with 60 nM DHK-PGD2
- Assay type: biochemical
- condition-info: potency class symbols; Table 2; read-out: CRTH2 hGTPγS IC50
- Protocol: [^35S]GTPγS Binding Assay SPA [^35S]G-TPγS binding was performed on membranes from CHO-K1 cells stably expressing human CRTH2. […] Plates were read after an additional 4 h using the Trilux 1450 Microbeta (PerkinElmer) with a 30 sec/well reading time.
pIC50: −log10 of the molar value.
attribute-measured: pIC50

Prompt: Item `N#Cc1cc(F)cc(-c2cc(CNS(=O)(=O)c3ccc(F)c(F)c3)ccc2OCC(=O)O)c1` : provide pIC50
Completion: > 7.00

Prompt: Item `CN(Cc1ccc(OCC(=O)O)c(-c2cccc(C(F)(F)F)c2)c1)S(=O)(=O)c1cc(F)cc(F)c1` : provide pIC50
Completion: 6.00 to 7.00

Prompt: Item `COc1ccc(S(=O)(=O)N(C)Cc2ccc(OCC(=O)O)c(-c3cc(F)cc(F)c3)c2)cc1F` : provide pIC50
Completion: > 7.00

With those in mind, consider the next molecule.
Prompt: Item `CN(Cc1ccc(OCC(=O)O)c(-c2ccc(F)c(F)c2)c1)S(=O)(=O)c1ccc(F)cc1` : provide pIC50
Completion: 6.00 to 7.00

###

This section presents compounds with their documented pIC50 values.
- target-desc: human CRTH2 (Homo sapiens, UniProt Q9Y5Y4)
- Construct: expressed in transfected cells
- Sequence (Q9Y5Y4 1-395): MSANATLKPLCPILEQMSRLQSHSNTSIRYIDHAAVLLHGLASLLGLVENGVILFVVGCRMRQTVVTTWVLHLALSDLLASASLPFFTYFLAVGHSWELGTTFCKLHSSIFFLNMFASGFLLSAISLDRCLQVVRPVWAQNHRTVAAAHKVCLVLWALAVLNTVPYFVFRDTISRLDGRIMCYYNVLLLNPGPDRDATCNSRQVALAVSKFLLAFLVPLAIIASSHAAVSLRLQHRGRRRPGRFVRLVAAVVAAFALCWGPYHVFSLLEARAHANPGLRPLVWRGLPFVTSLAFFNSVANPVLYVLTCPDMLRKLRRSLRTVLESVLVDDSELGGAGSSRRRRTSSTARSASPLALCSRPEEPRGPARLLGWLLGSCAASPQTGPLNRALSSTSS
- test-name: [35S]GTPγS binding assay (SPA) on membranes from CHO-K1 cells stably expressing human CRTH2, stimulated with 60 nM DHK-PGD2
- Type: biochemical
- condition-info: potency class symbols; Table 2; read-out: CRTH2 hGTPγS IC50
pIC50: −log10 of the molar value.

Prompt: Item CN(Cc1ccc(OCC(=O)O)c(-c2cccc(S(C)(=O)=O)c2)c1)S(=O)(=O)c1ccc(F)c(Cl)c1 [Example 39] : provide pIC50
Completion: > 7.00

---
Prompt: Item CN(Cc1ccc(OCC(=O)O)c(-c2cccc(S(N)(=O)=O)c2)c1)S(=O)(=O)c1ccc(F)cc1 [Example 52] : provide pIC50
Completion: > 7.00

Prompt: Item CN(C)S(=O)(=O)N(C)Cc1ccc(OCC(=O)O)c(-c2cccc(C(F)(F)F)c2)c1 [Example 182] : provide pIC50
Completion: 5.00 to 6.00

Prompt: Item CN(Cc1ccc(OCC(=O)O)c(-c2ccc3cc[nH]c3c2)c1)S(=O)(=O)c1ccc(F)cc1 [Example 183] : provide pIC50
Completion: 5.00 to 6.00

###

- target-desc: human CRTH2 (Homo sapiens, UniProt Q9Y5Y4)
- Construct: expressed in transfected cells
- test-name: [35S]GTPγS binding assay (SPA) on membranes from CHO-K1 cells stably expressing human CRTH2, stimulated with 60 nM DHK-PGD2
- Assay type: biochemical
- condition-info: potency class symbols; Table 2; read-out: CRTH2 hGTPγS IC50
pIC50: −log10 of the molar value.
attribute-measured: pIC50

Some compounds with recorded pIC50:
Prompt: Item `CN(Cc1ccc(OCC(=O)O)c(-c2cccc(C#N)c2)c1)S(=O)(=O)c1ccc(F)cc1` : provide pIC50
Completion: > 7.00

Prompt: Item `CN(Cc1ccc(OCC(=O)O)c(-c2cccc(S(C)(=O)=O)c2)c1)S(=O)(=O)c1ccccc1F` : provide pIC50
Completion: > 7.00

---
Prompt: Item `COc1ccc(S(=O)(=O)N(C)Cc2ccc(OCC(=O)O)c(-c3cccc(C#N)c3)c2)cc1` : provide pIC50
Completion: 6.00 to 7.00

Prompt: Item `CN(Cc1ccc(OCC(=O)O)c(-c2cccc3cnccc23)c1)S(=O)(=O)c1ccc(F)cc1` : provide pIC50
Completion: 5.00 to 6.00

Prompt: Item `CN(Cc1cc(F)c(OCC(=O)O)c(-c2cccc(C(F)(F)F)c2)c1)S(=O)(=O)c1ccc(F)cc1` : provide pIC50
Completion: 5.00 to 6.00

Prompt: Item `CN(Cc1ccc(OCC(=O)O)c(-c2cc(F)cc(C#N)c2)c1)S(=O)(=O)c1cccs1` : provide pIC50
Completion: > 7.00

Prompt: Item `CN(Cc1ccc(OCC(=O)O)c(-c2cc(F)cc(F)c2)c1)S(=O)(=O)c1ccc(F)cc1` : provide pIC50
Completion: 6.00 to 7.00

Prompt: Item `CN(Cc1ccc(OCC(=O)O)c(-c2ccccc2Cl)c1)S(=O)(=O)c1ccc(F)cc1` : provide pIC50
Completion: 5.00 to 6.00

###

- target-desc: human CRTH2 (Homo sapiens)
- Construct: expressed in transfected cells
- test-name: [35S]GTPγS binding assay (SPA) on membranes from CHO-K1 cells stably expressing human CRTH2, stimulated with 60 nM DHK-PGD2
- Assay type: biochemical
- condition-info: membranes of CHO-K1 cells expressing human CRTH2; 60 nM DHK-PGD2; Table 1; read-out: CRTH2 hGTPγS IC50
pIC50: −log10 of the molar value.
attribute-measured: pIC50

Some compounds with recorded pIC50:
Prompt: Item O=C(O)COc1ccc(CNS(=O)(=O)c2ccc(F)cc2)cc1-c1cccc(C(F)(F)F)c1 [Example 110] : provide pIC50
Completion: 6.77

Prompt: Item CN(Cc1ccc(OCC(=O)O)c(-c2cc(F)cc(C#N)c2)c1)S(=O)(=O)c1cccc(Cl)c1 [Example 45] : provide pIC50
Completion: 8.70

Prompt: Item CN(Cc1ccc(OCC(=O)O)c(-c2cccc(C#N)c2)c1)S(=O)(=O)c1cc(F)cc(F)c1 [Example 97] : provide pIC50
Completion: 7.37

Prompt: Item CN(Cc1ccc(OCC(=O)O)c(-c2cc(F)cc(C#N)c2)c1)S(=O)(=O)c1ccc(F)cc1 [Example 64] : provide pIC50
Completion: 7.92

Prompt: Item COc1ccc(S(=O)(=O)N(C)Cc2cc(-c3cc(F)cc(C#N)c3)c(OCC(=O)O)cc2F)cc1F [Example 197] : provide pIC50
Completion: 9.22

Prompt: Item CN(Cc1ccc(OCC(=O)O)c(-c2cc(F)cc(F)c2)c1)S(=O)(=O)c1ccc(F)c(Cl)c1 [Example 67] : provide pIC50
Completion: 7.89

(1) COc1cc(F)cc(-c2cc(CN(C)S(=O)(=O)c3ccc(OC)c(F)c3)ccc2OCC(=O)O)c1 [Example 48]
(2) CN(Cc1ccc(OCC(=O)O)c(-c2ccc3nonc3c2)c1)S(=O)(=O)c1ccc(F)cc1 [Example 187]
(3) CN(Cc1ccc(OCC(=O)O)c(-c2cc(F)cc(C#N)c2)c1)S(=O)(=O)c1ccc(F)c(F)c1 [Example 44]
Prompt: # rank_down: sort by pIC50, max first Answer format: the labels, ordered as requested.
Completion: 3, 1, 2

(I) COc1cc(F)cc(-c2cc(CN(C)S(=O)(=O)c3ccc(F)c(F)c3)ccc2OCC(=O)O)c1 [Example 46]
(II) CN(Cc1ccc(OCC(=O)O)c(-c2cc(F)cc(C#N)c2)c1)S(=O)(=O)c1cc(Cl)c(Cl)s1 [Example 192]
(III) N#Cc1cc(F)cc(-c2cc(CNS(=O)(=O)c3ccc(F)c(F)c3)ccc2OCC(=O)O)c1 [Example 194]
(IV) CN(Cc1ccc(OCC(=O)O)c(-c2cc(F)cc(F)c2)c1)S(=O)(=O)c1ccc(Cl)c(Cl)c1 [Example 51]
(V) COc1cc(F)cc(-c2cc(CN(C)S(=O)(=O)c3ccc(F)c(Cl)c3)ccc2OCC(=O)O)c1 [Example 37]
Prompt: Let's sort these by pIC50, smallest first. Go ahead? Answer format: the labels, ordered as requested.
Completion: III, IV, I, V, II

(A) CN(Cc1cc(-c2cccc(C#N)c2)c(OCC(=O)O)cc1Cl)S(=O)(=O)c1ccc(F)c(Cl)c1 [Example 42]
(B) CN(Cc1ccc(OCC(=O)O)c(-c2cc(F)cc(C#N)c2)c1)S(=O)(=O)c1ccc(Cl)c(Cl)c1 [Example 38]
Prompt: Which entry has a larger number for pIC50, A or B ? Your choice should be expressed through its label.
Completion: B
